Test system: D54 LucT luciferase reporter counterscreen, luminescence, 24 h
Test: reporter signal increase, D54 LucT cells – cell-based, luminescence, cherry pick, counter-screen for N-linked glycosylation inhibitor project, dose response (AID 624404)
Inconclusive results are not listed.
Measured AC35 by item
measure: AC35

>  <molecule>
CCOC(=O)Nc1nc2ccc(Cn3cccc3)cc2[nH]1

>  <result>
115 nM

$$$$
>  <molecule>
Cc1ccc2nc(/C(C#N)=C/c3cn[nH]c3-c3ccc(F)cc3)[nH]c2c1

>  <result>
2180 nM

$$$$
>  <molecule>
c1ccc2c(-c3nc4ccccc4[nH]3)cccc2c1

>  <result>
911 nM

$$$$
>  <molecule>
CCOC(=O)C1CCN(c2c(N3CCN(Cc4ccccc4)CC3)c(=O)c2=O)CC1

>  <result>
1220 nM

$$$$
>  <molecule>
COC(=O)c1c(NC(=O)CN2C(=O)NC3(CCC(C)CC3)C2=O)sc2c1CCC2 (stereo not drawn)

>  <result>
592 nM

$$$$
>  <molecule>
COc1ccc(NC(=O)C2Cc3c(-c4cccc(NC(C)=O)c4)ccnc3O2)cc1 (stereo not drawn)

>  <result>
18.9 nM

$$$$
>  <molecule>
O=c1cc(-c2ccc(O)cc2)oc2cc(O)c(C3OC(CO)C(O)C(O)C3O)c(O)c12 (stereo not drawn)

>  <result>
15.1 nM

$$$$
>  <molecule>
Cc1nc2ncccn2c1-c1csc(Nc2ccc(N(C)C)cc2)n1

>  <result>
28.9 nM

$$$$
>  <molecule>
Cc1nc(-c2ccccc2)sc1-c1nc(-c2ccncc2)ncc1S(=O)(=O)c1ccccc1

>  <result>
411 nM

$$$$
>  <molecule>
CC(=O)c1ccc(N2CCN(C(=O)c3cccc(Oc4ccccc4)c3)CC2)cc1

>  <result>
1270 nM

$$$$
>  <molecule>
Cc1cc2nnc(SCC(=O)NCc3ccco3)n2c2ccccc12

>  <result>
16600 nM

$$$$
>  <molecule>
COC1C(O)C(C)OC(OC2C(Oc3cccc4c(O)c5c(=O)oc6ccc(C)c7c(=O)oc(c34)c5c67)OC(C)C(O)C2O)C1O (stereo not drawn)

>  <result>
376 nM

$$$$
>  <molecule>
CC(C)c1ccc(OCc2ccc(C(=O)N3CCCC3)o2)cc1

>  <result>
850 nM

$$$$
>  <molecule>
COc1ccc(C2(CNC(=O)c3cc(OC)c(OC)c(OC)c3)CCCC2)cc1OC

>  <result>
3410 nM

$$$$
>  <molecule>
O=C(N/N=C/c1cccs1)c1cc(-c2cccc3ccccc23)n[nH]1

>  <result>
3530 nM

$$$$
>  <molecule>
CC(=O)Nc1sc(C)c(C)c1C(=O)OCC(=O)Nc1ccccc1

>  <result>
1920 nM

$$$$
>  <molecule>
COc1ccccc1CCC(=O)Nc1ccc2c(c1)c(=O)n(C)n2-c1cccs1

>  <result>
2330 nM

$$$$
>  <molecule>
COc1ccccc1-c1cc(NC=O)c2ncc(-c3cccc(C(=O)N(C)C)c3)n2c1

>  <result>
48.3 nM

$$$$
>  <molecule>
CC(C)Oc1ccc(C(=O)Nc2ccc3c(c2)n(C)c(=O)n3C)cc1

>  <result>
5520 nM

$$$$
>  <molecule>
CC(Nc1nc(-c2ccccc2)nc2ccccc12)c1ccccc1 (stereo not drawn)

>  <result>
379 nM

$$$$
>  <molecule>
CCN(CC)c1ccc(C(=O)n2cnc3ccccc32)cc1

>  <result>
662 nM

$$$$
>  <molecule>
COc1cc2c(cc1OC)C(c1ccccc1)N(C(=O)c1cccc(S(C)(=O)=O)c1)CC2 (stereo not drawn)

>  <result>
212 nM

$$$$
>  <molecule>
CC(Nc1nc(-c2ccccc2O)nc2ccccc12)c1ccccc1 (stereo not drawn)

>  <result>
39.5 nM

$$$$
>  <molecule>
Cc1ccc2nc(SCC(=O)Nc3ccc4sc(C)nc4c3)c(C#N)cc2c1

>  <result>
4.83 nM

$$$$
>  <molecule>
CC(=O)OC1CC[C@]2(C#N)[C@H]3CC[C@]4(C)[C@H](C5C=CC(=O)O5)CCC4(O)C3CCC2(O)C1 (stereo partly drawn)

>  <result>
2850 nM

$$$$
>  <molecule>
O=C(NC(=C(Cl)Cl)S(=O)(=O)c1ccc(Cl)cc1)c1ccccc1

>  <result>
2160 nM

$$$$
>  <molecule>
CCCNc1nc2ccccc2n2c(C)nnc12

>  <result>
19.1 nM

$$$$
>  <molecule>
COc1ccc2c(c1)[C@H]1[C@H](CO2)[C@H](c2ccccc2)[C@]2(C)C(=O)Nc3cc(OC)c(OC)cc3C(=O)N12

>  <result>
20.2 nM

$$$$
>  <molecule>
Cn1cccc1/C=C1\SC(=Nc2ccccc2)NC1=O

>  <result>
473 nM

$$$$
>  <molecule>
Cc1cccn2c(=O)c3cc(C(=O)NC4CCCCC4)n(C)c3nc12

>  <result>
7540 nM

$$$$
>  <molecule>
O=S(=O)(Cc1ccc(Cl)cc1Cl)c1ccc(Cl)cc1

>  <result>
1490 nM

$$$$
>  <molecule>
CCOC(=O)c1c(C)[nH]c(-c2csc(N)n2)c1C

>  <result>
787 nM

$$$$
>  <molecule>
C(=N\Nc1nc2ccccc2[nH]1)/c1c[nH]c2ccccc12

>  <result>
718 nM

$$$$
>  <molecule>
COc1ccc(C2=NOC(C(=O)NCc3cccs3)C2)cc1 (stereo not drawn)

>  <result>
1140 nM

$$$$
>  <molecule>
COc1cc(NC(=O)c2ccc(-c3c(C)noc3C)c3ccoc23)cc(OC)c1OC

>  <result>
58.2 nM

$$$$
>  <molecule>
O=C(CCN1C(=O)/C(=C/c2cccs2)SC1=S)N1CCCCC1

>  <result>
4530 nM

$$$$
>  <molecule>
COc1ccccc1NC(=O)c1cnc(SCC(=O)NCC2CCCO2)n(C)c1=O (stereo not drawn)

>  <result>
4930 nM

$$$$
>  <molecule>
O=S(=O)([N-]c1nc2ccccc2nc1-n1cc[n+](Cc2ccccc2)c1)c1ccc(Br)cc1

>  <result>
57 nM

$$$$
>  <molecule>
CC(C)(C)c1ccc(OCc2ccc(C(=O)N3CCOCC3)o2)cc1

>  <result>
1460 nM

$$$$
>  <molecule>
COc1ccc(/C=N/NC(=O)c2sccc2OCc2ccc(F)cc2)cc1OC

>  <result>
952 nM

$$$$
>  <molecule>
O=C1COc2ccc(C(=O)/C=C/c3ccccc3)cc2N1

>  <result>
641 nM

$$$$
>  <molecule>
C[C@]1(O)CC(=O)C=C[C@H]1Nc1ccccc1

>  <result>
1970 nM

$$$$
>  <molecule>
O=C(NCCc1ccccc1)C1c2ccccc2C(=O)N1Cc1cccs1 (stereo not drawn)

>  <result>
1400 nM

$$$$

Source: PubChem BioAssay AID624404
